B1: CPEB3 Ribozyme (parent)
chain: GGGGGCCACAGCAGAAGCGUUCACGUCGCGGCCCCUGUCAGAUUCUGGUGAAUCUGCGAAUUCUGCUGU

Variants of: B1
Assay: self-cleavage, relative activity (ratio to wild type); higher = more cleavage; co-transcriptional
# label = bin(measured self-cleavage), where bins are LOW (below 0.3), MEDIUM (0.3 to below 0.9), HIGH (0.9 or more)

Worked examples, 5 variants total:
{"columns": ["change", "assigned-label"],
 "data": [
  ["C24A U46C", "MEDIUM"],
  ["G14U U46C", "MEDIUM"],
  ["G19U U49G", "MEDIUM"],
  ["G47C A59G", "HIGH"],
  ["U21C U46G", "HIGH"]
]}

Category lookup for the variant C18U U69G
HIGH

Category lookup for the variant C32G U69C
MEDIUM
